Taken from patent US20170296650A1.

Target: T1, hCMV gH + gL + UL128 + UL130 + UL131A (5-member complex; HEK293T co-transfectant) (hCMV, UniProt P12824 24-743; P16832 31-278; P16837 1-171; P16772 1-214)
T1 construct: whole, on cells; in the functional rows it stands for the complex on virions or transduced cells of the strain or isolate named in the readout; also called gH/gL/UL128-131A complex; pentameric complex
Assay: cell competition; competitor 2F4-biotin
endpoint: Inhibition of binding (%)

10F7 (antibody, V domains shown, human IgG; also called 10F7-biotin) VH: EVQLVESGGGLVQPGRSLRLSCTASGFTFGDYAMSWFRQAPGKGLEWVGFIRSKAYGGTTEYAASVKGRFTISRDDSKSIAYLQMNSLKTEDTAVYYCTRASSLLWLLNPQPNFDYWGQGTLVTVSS VL: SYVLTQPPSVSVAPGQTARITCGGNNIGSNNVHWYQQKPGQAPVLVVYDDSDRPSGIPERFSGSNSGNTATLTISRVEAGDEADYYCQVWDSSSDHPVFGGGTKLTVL = 100%

Now look at this entry.
Exercise: Recorded Inhibition of binding (%) of 2C12 (antibody, V domains shown, human IgG; also called 2C12-biotin) VH: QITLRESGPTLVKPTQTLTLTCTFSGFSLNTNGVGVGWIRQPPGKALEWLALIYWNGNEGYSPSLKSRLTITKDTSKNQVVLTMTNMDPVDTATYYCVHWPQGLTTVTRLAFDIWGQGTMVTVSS VL: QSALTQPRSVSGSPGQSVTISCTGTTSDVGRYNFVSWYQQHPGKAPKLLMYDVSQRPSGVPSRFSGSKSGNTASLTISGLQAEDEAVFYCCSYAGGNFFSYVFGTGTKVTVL , please.
Solution: 0%
